Measured IC50 on human full length DNMT1 (Homo sapiens (Human)) follows.
Sequence (P26358 whole entry): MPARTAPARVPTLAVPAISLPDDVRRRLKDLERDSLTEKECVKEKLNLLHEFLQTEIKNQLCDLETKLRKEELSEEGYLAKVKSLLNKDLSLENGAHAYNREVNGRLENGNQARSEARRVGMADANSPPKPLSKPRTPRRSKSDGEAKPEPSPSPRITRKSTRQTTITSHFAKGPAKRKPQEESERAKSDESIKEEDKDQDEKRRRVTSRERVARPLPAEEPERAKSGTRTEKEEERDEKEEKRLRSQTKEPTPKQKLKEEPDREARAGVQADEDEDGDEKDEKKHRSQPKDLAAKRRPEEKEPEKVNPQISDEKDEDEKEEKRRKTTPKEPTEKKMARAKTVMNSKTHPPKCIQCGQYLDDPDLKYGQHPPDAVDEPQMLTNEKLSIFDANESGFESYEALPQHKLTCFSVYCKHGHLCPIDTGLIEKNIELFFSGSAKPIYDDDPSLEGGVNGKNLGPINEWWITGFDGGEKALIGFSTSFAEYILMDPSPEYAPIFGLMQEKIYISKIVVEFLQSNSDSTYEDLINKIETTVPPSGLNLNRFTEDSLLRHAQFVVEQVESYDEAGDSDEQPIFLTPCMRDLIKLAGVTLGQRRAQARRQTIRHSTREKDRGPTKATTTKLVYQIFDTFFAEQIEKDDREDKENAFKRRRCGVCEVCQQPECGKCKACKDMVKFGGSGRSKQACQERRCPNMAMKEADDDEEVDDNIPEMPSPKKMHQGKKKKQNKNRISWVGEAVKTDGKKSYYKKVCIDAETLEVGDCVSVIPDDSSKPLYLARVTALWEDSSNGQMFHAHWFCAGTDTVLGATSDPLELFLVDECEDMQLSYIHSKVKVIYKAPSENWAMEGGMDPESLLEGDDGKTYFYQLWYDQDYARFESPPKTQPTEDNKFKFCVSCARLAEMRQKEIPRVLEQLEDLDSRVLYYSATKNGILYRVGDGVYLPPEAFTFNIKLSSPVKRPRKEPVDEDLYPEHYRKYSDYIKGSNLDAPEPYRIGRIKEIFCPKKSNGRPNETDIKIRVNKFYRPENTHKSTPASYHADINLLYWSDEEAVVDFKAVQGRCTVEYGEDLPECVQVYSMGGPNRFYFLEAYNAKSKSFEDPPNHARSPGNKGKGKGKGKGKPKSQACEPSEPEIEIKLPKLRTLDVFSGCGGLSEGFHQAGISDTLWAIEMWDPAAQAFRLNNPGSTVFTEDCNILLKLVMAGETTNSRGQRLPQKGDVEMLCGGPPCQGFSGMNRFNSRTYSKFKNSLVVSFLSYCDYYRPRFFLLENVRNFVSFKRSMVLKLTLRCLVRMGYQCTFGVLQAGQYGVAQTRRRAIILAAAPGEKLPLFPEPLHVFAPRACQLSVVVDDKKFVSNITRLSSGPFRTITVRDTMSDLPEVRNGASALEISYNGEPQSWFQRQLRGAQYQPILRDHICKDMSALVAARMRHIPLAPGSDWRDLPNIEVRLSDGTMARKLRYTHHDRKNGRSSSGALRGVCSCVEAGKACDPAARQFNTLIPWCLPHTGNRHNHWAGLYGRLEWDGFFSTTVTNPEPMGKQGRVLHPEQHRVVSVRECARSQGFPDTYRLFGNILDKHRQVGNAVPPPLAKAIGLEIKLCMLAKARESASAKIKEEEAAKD

Worked examples follow.
compound="CN1CCN(C2CCN(c3nc(SC(C(N)=O)c4ccccc4)c(C#N)c(C4CC4)c3C#N)CC2)CC1 (stereo not shown) [Example 40]" subject_of_test="human full length DNMT1 (Homo sapiens (Human))" value_reported="≤ 500 nM"
compound="CC1CN(c2nc(SC(C(N)=O)c3ccccc3)c(C#N)c(C3CC3)c2C#N)CC(C)O1 (stereo not shown) [Example 21]" subject_of_test="human full length DNMT1 (Homo sapiens (Human))" value_reported="> 750 nM"
compound="CCc1c(C#N)c(SC(C(N)=O)c2ccccc2)nc(N2CCC3(CCO3)C2)c1C#N (stereo not shown) [Example 36]" subject_of_test="human full length DNMT1 (Homo sapiens (Human))" value_reported="> 750 nM"

Query block: Test system human full length DNMT1 (Homo sapiens (Human)); read-out IC50; what value for CCc1c(C#N)c(SC(C(N)=O)c2ccccc2)nc(N2C[C@@H](C)N[C@@H](C)C2)c1C#N (stereo partly shown) [Example 61] ?
Result block: ≤ 500 nM
